tested on: NUGC-4 (Gastric Carcinoma); assay: combination Emax (second highest fraction inhibited in the dose matrix, 72 h); higher = more inhibition; extreme values may be limits of the assay
attribute.measured: combination Emax
One number for each entry.

Reference set, count: 3
compound	combination Emax
Cn1cnc2c(F)c(Nc3ccc(Br)cc3Cl)c(C(=O)NOCCO)cc21 [Selumetinib] + C[C@@H]1COCCN1C2=NC(=NC(=C2)C3(CC3)[S@](=N)(=O)C)C4=C5C=CNC5=NC=C4 [AZD6738] (first compound max 10 µM, 7x7, partner max 10 µM)	0.607
CC(=O)Nc1cccc(-n2c(=O)n(C3CC3)c(=O)c3c(Nc4ccc(I)cc4F)n(C)c(=O)c(C)c32)c1 [Trametinib] + Cc1nc(-c2cn3c(n2)-c2ccc(-c4cnn(C(C)(C)C(N)=O)c4)cc2OCC3)n(C(C)C)n1 [Taselisib] (first compound max 1 µM, 7x7, partner max 10 µM)	0.554
CN(C)CCCOc1ccc(-c2ccc3ncc4c(c3c2)n(C2CCOCC2)c(=O)n4C)cn1 [AZD0156] + CCN(CCO)CCCOc1ccc2c(Nc3cc(CC(=O)Nc4cccc(F)c4)[nH]n3)ncnc2c1 [AZD2811] (first compound max 1 µM, 7x7, partner max 1 µM)	0.0855

Incoming: Please look up its combination Emax: COc1cccc(OCCCN)c1-c1cc(Nc2cnc(C#N)cn2)n[nH]1 [Prexasertib] + C[C@@H]1COCCN1C2=NC(=NC(=C2)C3(CC3)[S@](=N)(=O)C)C4=C5C=CNC5=NC=C4 [AZD6738] (first compound max 1 µM, 7x7, partner max 10 µM)
Outgoing: 0.543
